# assay.system: HIV-1 NL4-3 Env on infected cells (HIV-1 group M subtype B, NL4-3 (pNL4-3 …, strain))
measure: binding result

c13230 (antibody, V domains shown) VH: QVQLVESGGGVVQPGKSLKLSCATSGFNFSTFGIHWVRQAPGKGLEWLTVISYDGSEKFYGESVKGRFTISRDTSKKTVFLQIKSLKTEDTAVYYCAKDRAENRVSTSPLGMYYYFGMDVWGQGTTVIVSS VL: EIMMTQSPATLSASPGEGVTLSCRASQSVSNDFAWYQQTPGQSPKLLFYDAYTRATGVPARFSVNGSGTDFTLTINSLQSEDFASYYCLQYHKWPPYSFGQGTKLGIK	binds
c27003 (antibody, V domains shown) VH: QFQLVQSGAEVRSPGSSVTVSCKASGSTFHTYVLSWVRQAPGQGLEWMGGIIPIFATPKYAQKFQGRVTFTADEGTSTAYMDLRSLRPEDTAVYYCARSATGGTALVDYGDYEGDTFYHNHMDVWGAGTTVTVSS VL: QSVLTQPPSASATPGQRVTISCSGRTSNVGSYAVSWYQQLPGTAPKLVIYSDDRRPSGVPDRFSGSKSGTSASLAISGLQSEDEADFYCAAWDDSLKTPVFGGGTKLTVL	binds
c5221 (antibody, V domains shown) VH: QPQMKQSGIEVKKPGAAVKVSCKPSGYWFIACGISWVRQAPGRGLEWLGWVYPYNGKVNLARKFWGRVTLTADRSTETAYMELKSLTSDDTAIYYCARDSEQYDAAMPNYFTEYGMDVWGQGTTVIVSS VL: EIVLTQSPDTLSLSPGETAALSCRASQSITGKGLAWYKQRPGQPPSLFVFGVSKRAAGVPDRVSGSGSGTDYILTIRRLEPEDSAVYFCQQYQDPARTFGQGTKLEIK	binds
